biological target: human norepinephrine transporter (hNET) (Homo sapiens, UniProt P23975); experiment: cell-based
Sequence (P23975 whole entry): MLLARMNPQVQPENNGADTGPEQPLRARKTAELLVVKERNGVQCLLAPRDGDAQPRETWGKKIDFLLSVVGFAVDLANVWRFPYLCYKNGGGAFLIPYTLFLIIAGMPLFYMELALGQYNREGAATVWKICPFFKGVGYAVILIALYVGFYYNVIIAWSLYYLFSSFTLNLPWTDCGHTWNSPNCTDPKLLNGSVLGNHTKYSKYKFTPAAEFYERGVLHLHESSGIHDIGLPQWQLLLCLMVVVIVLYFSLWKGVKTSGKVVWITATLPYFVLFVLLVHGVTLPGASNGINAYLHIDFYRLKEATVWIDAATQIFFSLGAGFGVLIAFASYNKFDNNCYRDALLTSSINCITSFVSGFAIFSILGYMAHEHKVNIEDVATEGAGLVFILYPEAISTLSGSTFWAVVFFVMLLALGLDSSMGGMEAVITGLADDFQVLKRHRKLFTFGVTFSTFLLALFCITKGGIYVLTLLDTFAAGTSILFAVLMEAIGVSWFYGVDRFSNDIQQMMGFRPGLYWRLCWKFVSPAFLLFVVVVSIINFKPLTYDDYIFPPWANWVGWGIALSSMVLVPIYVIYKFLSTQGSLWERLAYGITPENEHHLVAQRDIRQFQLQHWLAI
readout type: Ki
Answer with the number, then the unit.

compound: Fc1ccc(C(OCCCCN2CCN(c3ccccc3F)CC2)c2ccc(F)cc2)cc1
measured result: 700 nM

compound: Fc1ccc(C(OCCCCN2CCN(c3ccc(F)cc3)CC2)c2ccc(F)cc2)cc1
measured result: 225 nM

compound: Fc1ccc(C(OCCCCN2CCNC(c3ccccc3)C2)c2ccc(F)cc2)cc1 (stereo not shown)
measured result: 290 nM

For Fc1ccc(C(OCCCCN2CCN(c3cccc(C(F)(F)F)c3)CC2)c2ccc(F)cc2)cc1 , what is its reported Ki?
310 nM

----------
target: human dopamine transporter (hDAT) (Homo sapiens); test: cell-based
readout type: Discrimination Ratio DAT Binding/Reuptake

input smiles: Fc1ccc(C(OCCCCN2CCN(c3ccc(F)cc3)CC2)c2ccc(F)cc2)cc1
measured result: 23.0

Which Discrimination Ratio DAT Binding/Reuptake reading was recorded for the compound Fc1ccc(C(OCCCCN2CCN(c3cccc(Cl)c3)CC2)c2ccc(F)cc2)cc1 ?
9.5

// Discrimination Ratio DAT Binding/Reuptake lookup, key: Fc1ccc(C(OCCCCN2CCN(c3ccc(Cl)cc3)CC2)c2ccc(F)cc2)cc1
23.4

Fill in: Discrimination Ratio DAT Binding/Reuptake of OC1(c2ccc(Cl)cc2)CCN(CCCCOC(c2ccc(F)cc2)c2ccc(F)cc2)CC1 is ___
95.2

Discrimination Ratio DAT Binding/Reuptake for Fc1ccc(C(OCCCCN2CCN(c3cccc(C(F)(F)F)c3)CC2)c2ccc(F)cc2)cc1 ?
11.7

Return reported Discrimination Ratio DAT Binding/Reuptake; argument: COc1ccccc1N1CCN(CCCCOC(c2ccc(F)cc2)c2ccc(F)cc2)CC1
11.5

Need Discrimination Ratio DAT Binding/Reuptake, item Fc1ccc(C(OCCCCN2CCN(c3ccccc3F)CC2)c2ccc(F)cc2)cc1
11.9

Quick one: Discrimination Ratio DAT Binding/Reuptake of O=c1[nH]c2ccccc2n1C1CCN(CCCCOC(c2ccc(F)cc2)c2ccc(F)cc2)CC1 ?
323

----------
target: human norepinephrine transporter (hNET) (Homo sapiens, UniProt P23975); assay: cell-based; conditions: read-out: Reuptake [3H]NE (Ki ± SD)
readout type: Ki

Given O=C1CN(CCCCOC(c2ccc(F)cc2)c2ccc(F)cc2)CCN1 , state its recorded Ki.
> 10 µM

----------
target: human dopamine transporter (hDAT) (Homo sapiens, UniProt Q01959); experiment: cell-based
Sequence (Q01959 whole entry): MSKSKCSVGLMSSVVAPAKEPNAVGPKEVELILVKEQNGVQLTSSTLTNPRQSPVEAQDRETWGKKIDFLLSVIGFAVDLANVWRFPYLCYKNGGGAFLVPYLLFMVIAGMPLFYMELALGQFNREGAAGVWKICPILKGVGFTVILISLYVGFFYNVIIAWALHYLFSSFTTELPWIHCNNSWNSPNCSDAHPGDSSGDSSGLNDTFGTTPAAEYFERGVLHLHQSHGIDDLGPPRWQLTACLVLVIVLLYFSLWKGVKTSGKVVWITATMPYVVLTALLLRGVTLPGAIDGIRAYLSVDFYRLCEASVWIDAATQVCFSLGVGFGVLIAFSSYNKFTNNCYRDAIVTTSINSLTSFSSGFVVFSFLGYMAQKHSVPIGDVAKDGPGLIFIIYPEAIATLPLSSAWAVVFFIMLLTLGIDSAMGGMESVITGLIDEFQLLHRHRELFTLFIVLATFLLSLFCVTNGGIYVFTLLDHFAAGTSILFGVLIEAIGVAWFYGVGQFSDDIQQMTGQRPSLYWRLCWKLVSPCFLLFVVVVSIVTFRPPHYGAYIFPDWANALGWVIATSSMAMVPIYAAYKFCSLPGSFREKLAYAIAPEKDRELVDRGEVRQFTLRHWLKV
readout type: pIC50
Note: pIC50 values are expressed as the negative base-10 logarithm of concentration in M.

Worked examples, 5 compounds total:
compound: Fc1ccc(C(OCCCCN2CCN(c3ccc(Cl)cc3)CC2)c2ccc(F)cc2)cc1 [Compound 31652]
pIC50: 5.93
//
compound: OC1(c2ccccc2)CCN(CCCCOC(c2ccc(F)cc2)c2ccc(F)cc2)CC1 [Compound 31531]
pIC50: 7.02
//
compound: Fc1ccc(C(OCCCCN2CCN(c3ccccc3)CC2)c2ccc(F)cc2)cc1 [Compound 31653]
pIC50: 5.85
//
compound: Fc1ccc(C(OCCCCN2CCN(c3cccc(C(F)(F)F)c3)CC2)c2ccc(F)cc2)cc1 [Compound 31532]
pIC50: 6.42
//
compound: Fc1ccc(C(OCCCCN2CCN(c3ccc(F)cc3)CC2)c2ccc(F)cc2)cc1 [Compound 31527]
pIC50: 6.21

Now let's try a different one.
Form field: pIC50 recorded for Fc1ccc(C(OCCCCN2CCN(c3ccccc3F)CC2)c2ccc(F)cc2)cc1 [Compound 31526] with human dopamine transporter (hDAT) (Homo sapiens, UniProt Q01959) (enter value)
6.34

----------
target: human dopamine transporter (hDAT) (Homo sapiens, UniProt Q01959); test: biochemical; assay type: binding
Each entry below lists one item and its recorded Binding discrimination ratio NET/DAT value.

These solved cases illustrate the format of a correct answer.
compound: O=C1CN(CCCCOC(c2ccc(F)cc2)c2ccc(F)cc2)CCN1
Binding discrimination ratio NET/DAT: >2.4
--
compound: OC1(c2ccc(Cl)cc2)CCN(CCCCOC(c2ccc(F)cc2)c2ccc(F)cc2)CC1
Binding discrimination ratio NET/DAT: 51.7
--
compound: Fc1ccc(C(OCCCCN2CCNC(c3ccccc3)C2)c2ccc(F)cc2)cc1 (stereo not shown)
Binding discrimination ratio NET/DAT: 49.9

// below: Binding discrimination ratio NET/DAT requested for another compound
Record request: Binding discrimination ratio NET/DAT value, item Fc1ccc(C(OCCCCN2CCN(c3ccc(Cl)cc3)CC2)c2ccc(F)cc2)cc1
7.6

----------
target: human norepinephrine transporter (hNET) (Homo sapiens, UniProt P23975); experiment: cell-based; conditions: HEK-hNET cells; read-out: [3H]NE Uptake IC50
Here, each record is paired with measured pIC50 data.
// pIC50 here means minus log10 of the molar concentration (mol/L)

input smiles: OC1(c2ccc(Cl)cc2)CCN(CCCCOC(c2ccc(F)cc2)c2ccc(F)cc2)CC1
measured result: 6.10
--
input smiles: OC1(c2ccccc2)CCN(CCCCOC(c2ccc(F)cc2)c2ccc(F)cc2)CC1
measured result: 6.75
--
input smiles: CC(=O)C1(c2ccccc2)CCN(CCCCOC(c2ccc(F)cc2)c2ccc(F)cc2)CC1
measured result: 5.59

Okay, next one:
Which pIC50 is listed for OC1(c2ccc(Br)cc2)CCN(CCCCOC(c2ccc(F)cc2)c2ccc(F)cc2)CC1 ?
5.73

----------
biological target: human norepinephrine transporter (hNET) (Homo sapiens, UniProt P23975); test: cell-based; conditions: read-out: [3H]NE Uptake IC50
Checkbox rule: IC50 lower than 300 nM = Yes; IC50 not lower than 300 nM = No.

molecule: COc1ccccc1N1CCN(CCCCOC(c2ccc(F)cc2)c2ccc(F)cc2)CC1
category label: Yes
//
molecule: Fc1ccc(C(OCCCCN2CCN(c3cccc(Cl)c3)CC2)c2ccc(F)cc2)cc1
category label: Yes
//
molecule: OC1CCN(CCCCOC(c2ccc(F)cc2)c2ccc(F)cc2)CC1
category label: Yes
//
molecule: O=c1[nH]c2ccccc2n1C1CCN(CCCCOC(c2ccc(F)cc2)c2ccc(F)cc2)CC1
category label: Yes
//
molecule: Fc1ccc(C(OCCCCN2CCN(c3ccccc3F)CC2)c2ccc(F)cc2)cc1
category label: No

Dear reviewer, please state whether O=C1c2ccccc2C(=O)N1CCCCN1CCC(O)(c2ccc(Br)cc2)CC1 has IC50 strictly beneath 300 nM.
No

Report whether reported IC50 is lower than 300 nM (strictly) for NC(=O)C1CCCN(CCCCOC(c2ccc(F)cc2)c2ccc(F)cc2)C1 (stereo not shown)
Yes

----------
target: human dopamine transporter (hDAT) (Homo sapiens); test: biochemical; format: binding
readout type: Hill coefficient
Just the number, please.

These recorded examples may help you get a feel for the data.
compound: OC1(c2ccccc2)CCN(CCCCOC(c2ccc(F)cc2)c2ccc(F)cc2)CC1 [Compound 31531]
Hill coefficient: −0.63
--
compound: Fc1ccc(C(OCCCCN2CCN(c3ccccc3)CC2)c2ccc(F)cc2)cc1 [Compound 31653]
Hill coefficient: −1.14
--
compound: OC1CCN(CCCCOC(c2ccc(F)cc2)c2ccc(F)cc2)CC1 [Compound 31648]
Hill coefficient: −0.69
--
compound: Fc1ccc(C(OCCCCN2CCN(c3ccc(F)cc3)CC2)c2ccc(F)cc2)cc1 [Compound 31527]
Hill coefficient: −0.84
--
compound: NC(=O)C1CCCN(CCCCOC(c2ccc(F)cc2)c2ccc(F)cc2)C1 (centres unmarked) [Compound 31628]
Hill coefficient: −1.02
--
compound: COc1ccccc1N1CCN(CCCCOC(c2ccc(F)cc2)c2ccc(F)cc2)CC1 [Compound 31654]
Hill coefficient: −0.88
--
compound: Fc1ccc(C(OCCCCN2CCN(c3ccccc3F)CC2)c2ccc(F)cc2)cc1 [Compound 31526]
Hill coefficient: −0.86

Report Hill coefficient for O=C1CN(CCCCOC(c2ccc(F)cc2)c2ccc(F)cc2)CCN1 [Compound 31524] please.
−064

----------
target: human norepinephrine transporter (hNET) (Homo sapiens); experiment: biochemical; type: binding
readout type: Hill coefficient
Form field (numeric): enter value without unit.

// below: answered compounds
compound: OC1(c2ccc(Br)cc2)CCN(CCCCOC(c2ccc(F)cc2)c2ccc(F)cc2)CC1
readout type: Hill coefficient
measured result: −0.97
--
compound: Fc1ccc(C(OCCCCN2CCN(c3cccc(C(F)(F)F)c3)CC2)c2ccc(F)cc2)cc1
readout type: Hill coefficient
measured result: −0.80
--
compound: NC(=O)C1CCCN(CCCCOC(c2ccc(F)cc2)c2ccc(F)cc2)C1 (stereo not drawn)
readout type: Hill coefficient
measured result: −1.48

Need Hill coefficient of Fc1ccc(C(OCCCCN2CCN(c3ccccc3Cl)CC2)c2ccc(F)cc2)cc1 , thanks.
−1.39

// lookup Hill coefficient for Fc1ccc(C(OCCCCN2CCN(c3ccccc3)CC2)c2ccc(F)cc2)cc1
−0.93

Recorded Hill coefficient for OC1CCN(CCCCOC(c2ccc(F)cc2)c2ccc(F)cc2)CC1 , please?
−0.75

Any idea what its Hill coefficient is? The compound is OC1(c2ccccc2)CCN(CCCCOC(c2ccc(F)cc2)c2ccc(F)cc2)CC1
−0.73

Entry under review: O=c1[nH]c2ccccc2n1C1CCN(CCCCOC(c2ccc(F)cc2)c2ccc(F)cc2)CC1 . Reported Hill coefficient?
−0.47

What Hill coefficient value was documented for this compound, OC1(c2ccc(Cl)cc2)CCN(CCCCOC(c2ccc(F)cc2)c2ccc(F)cc2)CC1 ?
−0.99

So what does the record say about Hill coefficient for COc1ccccc1N1CCN(CCCCOC(c2ccc(F)cc2)c2ccc(F)cc2)CC1 ?
−0.59

I'd like to know its Hill coefficient. The compound in question is CC(=O)C1(c2ccccc2)CCN(CCCCOC(c2ccc(F)cc2)c2ccc(F)cc2)CC1
−0.71

# lookup: Hill coefficient of Fc1ccc(C(OCCCCN2CCN(c3ccc(F)cc3)CC2)c2ccc(F)cc2)cc1
−0.72

I have this compound here, Fc1ccc(C(OCCCCN2CCN(c3ccccc3F)CC2)c2ccc(F)cc2)cc1 , and I need its recorded Hill coefficient.
−0.91

# input compound: OC1CCCN(CCCCOC(c2ccc(F)cc2)c2ccc(F)cc2)C1 (stereo not drawn) ; wanted: its Hill coefficient
−0.66

What value of Hill coefficient has been recorded for this entry: Fc1ccc(C(OCCCCN2CCN(c3ccc(Cl)cc3)CC2)c2ccc(F)cc2)cc1
−0.80
